- assayed target: Nuclear factor erythroid 2-related factor 2 (Mus musculus)
- protocol description: Activation of Nrf2 in mouse Hepa-1c1c7 cells assessed as concentration required to double specific activity of NQO1 incubated for 48 hrs
- Format: cell-based
I'd be grateful if you could share measured pCD for these entries.
// no unit string in output, number only

Problem: Report pCD for `CC1(C)C=CC(=O)C(C#N)=C1` tested on Nuclear factor erythroid 2-related factor 2 (Mus musculus).
Result: 6.82

Problem: Report pCD for C=CC1(C)C=CC(=O)C(C#N)=C1 (stereo not given) tested on Nuclear factor erythroid 2-related factor 2 (Mus musculus).
Result: 6.82

Problem: Report pCD for `CC#C[C@]12C=C(C#N)C(=O)C=C1[C@@]1(C)C=C(C#N)C(=O)C(C)(C)[C@@H]1CC2` tested on Nuclear factor erythroid 2-related factor 2 (Mus musculus).
Result: 8.12

Problem: Report pCD for C#CC1(C=C)C=CC(=O)C(C#N)=C1 (stereo not given) tested on Nuclear factor erythroid 2-related factor 2 (Mus musculus).
Result: 7.7

Problem: Report pCD for `CC1(C)C(=O)C(C#N)=C[C@]2(C)C3=CC(=O)C=C[C@]3(C)CC[C@@H]12` tested on Nuclear factor erythroid 2-related factor 2 (Mus musculus).
Result: 6.8

---

- assayed target: UniProtKB Q60795
- Sequence (Q60795 whole entry): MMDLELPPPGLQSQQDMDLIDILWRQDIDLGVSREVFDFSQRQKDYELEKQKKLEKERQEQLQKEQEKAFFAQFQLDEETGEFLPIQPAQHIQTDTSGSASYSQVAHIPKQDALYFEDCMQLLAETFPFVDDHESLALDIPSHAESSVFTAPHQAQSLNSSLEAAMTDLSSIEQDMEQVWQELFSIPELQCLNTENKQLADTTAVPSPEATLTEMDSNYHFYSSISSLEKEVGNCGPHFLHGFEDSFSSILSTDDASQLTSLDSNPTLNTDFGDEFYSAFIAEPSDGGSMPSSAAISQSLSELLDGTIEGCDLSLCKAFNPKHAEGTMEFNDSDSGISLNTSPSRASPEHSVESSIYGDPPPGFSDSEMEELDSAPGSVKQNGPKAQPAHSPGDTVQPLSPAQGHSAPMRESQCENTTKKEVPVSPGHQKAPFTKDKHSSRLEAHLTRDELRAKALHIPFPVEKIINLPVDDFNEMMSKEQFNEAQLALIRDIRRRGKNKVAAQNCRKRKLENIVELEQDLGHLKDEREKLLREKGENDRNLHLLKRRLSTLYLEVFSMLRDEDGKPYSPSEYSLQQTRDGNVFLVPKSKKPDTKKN
- protocol description: Activation of Nrf2 in mouse Hepa-1c1c7 cells assessed as concentration required to double specific activity of NQO1 incubated for 48 hrs
- Assay type: cell-based
I'd be grateful if you could share measured pCD for these entries.
// no unit string in output, number only

Problem: Form field: reported pCD of `C=C[C@]12C=C(C#N)C(=O)C=C1[C@@]1(C)C=C(C#N)C(=O)C(C)(C)[C@@H]1CC2`
Result: 7.52

Problem: Form field: reported pCD of `C#CC1(C#C)C=CC(=O)C(C#N)=C1`
Result: 6.74

Problem: Form field: reported pCD of CC#CC1(C)C=CC(=O)C(C#N)=C1 (configuration not stated)
Result: 7.48

Problem: Form field: reported pCD of C#CC12C=C(C#N)C(=O)C=C1CCC2 (configuration not stated)
Result: 7.25

Problem: Form field: reported pCD of C#CC1(C)C=C(C#N)C(=O)CC1 (configuration not stated)
Result: 7

Problem: Form field: reported pCD of `CC[C@]12C=C(C#N)C(=O)C=C1[C@@]1(C)C=C(C#N)C(=O)C(C)(C)[C@@H]1CC2`
Result: 7.74

Problem: Form field: reported pCD of `C#C[C@]12C=C(C#N)C(=O)C=C1[C@@]1(C)C=C(C#N)C(=O)C(C)(C)[C@@H]1CC2`
Result: 9.04

Problem: Form field: reported pCD of C#CC1(C)C=CC(=O)C(C#N)=C1 (configuration not stated)
Result: 7.67

Problem: Form field: reported pCD of `CC1(C)C(=O)C(C#N)=C[C@]2(C)C3=CC(=O)C(C#N)=C[C@]3(C)CC[C@@H]12`
Result: 7.74

Problem: Form field: reported pCD of `CC1(C)C=C(C#N)C(=O)C(C)(C)C1`
Result: 5.72

Problem: Form field: reported pCD of C#CC1(CC)C=CC(=O)C(C#N)=C1 (configuration not stated)
Result: 7.38

Problem: Form field: reported pCD of C#CC12C=C(C#N)C(=O)C=C1C(C)(C)CC2 (configuration not stated)
Result: 7
